- Test system: U2OS
- assay_procedure: Multiplex assay against U2OS
- Assay type: toxicity, cell-based
- recorded_conditions: human, 12 h, 10 µM, compound concentration 10 uM, replicate 2
Rule: Population Membrane Permeable-Phenotype (%) below 20% gives rule met. Equal to or above 20% gives rule not met.

Input line: Please indicate whether the reported Population Membrane Permeable-Phenotype (%) of "COc1c(C)cc(NC(=O)c2nn(Cc3ccc(F)cc3)c3c2CN(C(=O)c2ccc[nH]2)C[C@]3(C)C(N)=O)cc1C" is strictly below 20%.
Output line: rule not met

Input line: For CN1CCN2c3ncccc3Cc3ccccc3C2C1 (stereo not given) , is the recorded Population Membrane Permeable-Phenotype (%) below the cut-off of 20%?
Output line: rule met

Input line: Would you kindly verify if Population Membrane Permeable-Phenotype (%) of "O=C1COc2nccc(-c3ccccc3F)c2CN1Cc1cc(C(F)(F)F)cc(C(F)(F)F)c1" is strictly less than 20%?
Output line: rule met

Input line: Item "CN(C)c1ccnc2sc3c(=O)n(N4CCCCCC4)cnc3c12" : Population Membrane Permeable-Phenotype (%) beneath 20%, strictly?
Output line: rule not met

Input line: # check: Population Membrane Permeable-Phenotype (%) < 20% for "N#Cc1c(N)nc(SCc2csc(-c3ccc(Cl)cc3)n2)c(C#N)c1-c1ccc(OCCO)cc1"
Output line: rule not met

Input line: Would you kindly verify if Population Membrane Permeable-Phenotype (%) of "CC1(COc2ccc3c(c2)ncn3-c2ccc3cccc(N4CCC(N)CC4)c3n2)COC1" is strictly less than 20%?
Output line: rule not met

Input line: Please indicate whether the reported Population Membrane Permeable-Phenotype (%) of "COc1cc(C(=O)N(CCCc2ccccc2)Cc2ccc(CC(=O)O)cc2)cc(OC)c1C" is strictly below 20%.
Output line: rule met

Input line: Hello, I'm reviewing records and need to know if Population Membrane Permeable-Phenotype (%) of "CCNC1(C(N)=O)CCN(c2ncnc3c2nc(-c2ccccc2Cl)n3-c2ccc(Cl)cc2)CC1" is below 20%. Could you check?
Output line: rule not met

----------
Consider the following compounds; for each one, report its Population Pyknosed Nuclei (%).
- System: HEK-293T
- assay_procedure: Multiplex assay against HEK293T
- Assay type: toxicity, cell-based
- recorded_conditions: human, 24 h, 10 µM, compound concentration 10 uM, replicate 1
Answers are plain numbers, in %.

                                   compound  system_under_test  readout_value
0  O=C1COc2nccc(-c3ccccc3F)c2CN1Cc1cc(C(F)(F)F)cc(C(F)(F)F)c1           HEK-293T             13
1  Cc1ccc(C(C)(O)c2nc3ccccc3s2)c(C)c1 (centres undefined)           HEK-293T             11

For every item in the list below, what is its measured Population Pyknosed Nuclei (%)?
1. CCCn1c(=O)c2[nH]c(C3CCCC3)nc2n(CCC)c1=O
2. O=S(=O)(c1ccccc1)c1cnc2c(N3CCNCC3)cccc2c1 [INTEPIRDINE]
3. CCCC(CCC)C(=O)O [VALPROIC ACID]
4. O=C(O)c1cc2ccccc2c(Cc2c(O)c(C(=O)O)cc3ccccc23)c1O [PAMOIC ACID]

Output line:
1: 14; 2: 12; 3: 9; 4: 14

Here are 3 compounds. What values of Population Pyknosed Nuclei (%) were reported for them?
1. C[C@@H]1C[C@H]2[C@@H]3CCC4=CC(=O)C=C[C@]4(C)[C@@]3(F)[C@@H](O)C[C@]2(C)[C@@]1(O)C(=O)CO [DEXAMETHASONE]
2. COc1ccc2c(c1)C(C(=O)N(Cc1ccc(N(C)C)cc1)c1ccc(C(C)C)cc1)CCC2.Cl (centres undefined)
3. CC1(COc2ccc3c(c2)ncn3-c2ccc3cccc(N4CCC(N)CC4)c3n2)COC1 [CRENOLANIB]

Output line:
16
17
23
